Tested on: Escherichia coli TOP10
assay info: shrunken log2 fold change of peptide-encoding DNA abundance (4.5 h post-induction vs induction); higher = less antimicrobial activity (less host growth inhibition)
condition: time post-induction: 4.5 h; library: site-saturation at positions 5, 18, 19, 20
# maps each entry to its shrunken log2 fold change
Note: the reply should be a number with no unit written.

biosequence	shrunken log2 fold change
RRIRVRPPRLPRPRPRPWYFPRP	-0.619
RRIRERPPRLPRPRPRPRKRPRP	0.255

Inquiry: So what's the measured shrunken log2 fold change for this one? RRIRDRPPRLPRPRPRPQSNPRP
Reply text: -0.109

* * *

Each entry below lists one item and its recorded shrunken log2 fold change value.
Test system: Escherichia coli TOP10;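 further: peptides expressed intracellularly from a pBAD plasmid library in pooled LB shake-flask culture, induced with 0.3% L-arabinose, DNA abundance read by NGS, three biological replicates, DESeq2 with apeglm shrinkage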
assay info: shrunken log2 fold change of peptide-encoding DNA abundance (4.5 h post-induction vs induction); higher = less antimicrobial activity (less host growth inhibition)
condition: time post-induction: 4.5 h; library: site-saturation at positions 5, 18, 19, 20
Keep it simple and answer with nothing but the number.

biosequence	shrunken log2 fold change
RRIRLRPPRLPRPRPRPDTYPRP	-0.93
RRIRCRPPRLPRPRPRPLFIPRP	-0.51
RRIRTRPPRLPRPRPRPDAKPRP	0.395
RRIRMRPPRLPRPRPRPMEIPRP	-0.129
RRIRLRPPRLPRPRPRPNEIPRP	0.0349

Inquiry: Which value of shrunken log2 fold change has been reported for RRIRDRPPRLPRPRPRPGVFPRP in the records?
Reply text: -0.00239

Inquiry: Proceed to RRIRNRPPRLPRPRPRPNRWPRP
Reply text: 0.105
